system: MCF7 breast; assay: NCI-60 one-dose screen, 48 h (100 = growth as untreated, 0 = no growth, -100 = all killed); details: 10 µM unless noted
This is part of a sample that, as a whole, favours compounds with a hit. Of some 83,000 tested, about 20% had one in any assay.

{"columns": ["compound", "growth [%]"],
 "data": [
  ["Cc1ccc(C(=O)Nc2cc(-n3ccnc3C)cc(C(F)(F)F)c2)cc1C#Cc1cnc2cccnn12", 0.633],
  ["O=C(N/N=C/c1ccsc1)c1[nH]c2ccc(Br)cc2c1-c1ccccc1", -50.9],
  ["CC1CCc2c(sc3nc(SCC(=O)c4cccc([N+](=O)[O-])c4)n(-c4ccccc4)c(=O)c23)C1 (stereo not given)", 86.5],
  ["COc1sc(/C=N/NC(=O)c2[nH]c3ccc(Br)cc3c2-c2ccccc2)cc1Br", 4.42],
  ["Cc1ccc(C(=O)Nc2cc(-c3ccncc3)cc(C(F)(F)F)c2)cc1C#Cc1cnc2cccnn12", 45.9]
]}

* * *

Tested on: LOX IMVI melanoma
Assay: NCI-60 one-dose screen, 48 h (100 = growth as untreated, 0 = no growth, -100 = all killed)
Conditions: 10 µM unless noted
Procedure: Growth inhibition of the LOX IMVI human tumor cell line is measured as a screen for anti-cancer activity. Cells are grown in 96 well plates and exposed to the test compound for 48 hours. Compounds are tested at a single concentration, which is 10^-5 M for most compounds. The reported endpoint is percent growth (GI% or GIPRCNT), where numbers from 0 - 100% represent growth inhibition, and numbers from -100% - 0 represent cell death. For example, a value of 40 represents 60% growth inhibition. […]
The panel holds about 83,000 compounds, 20% with a hit somewhere; the sample as a whole holds those more often.
growth less than 30% is condition met; growth greater than or equal to 30% is condition not met.

{"columns": ["compound", "classification"],
 "data": [
  ["O=C(Nc1ccc(-c2ccc3c(c2)NC(=O)/C3=C\\c2ccc[nH]2)cc1)Nc1ccc(Cl)c(C(F)(F)F)c1", "condition not met"],
  ["N#CC1=C(c2ccco2)Nc2c(c(-c3ccccc3)nn2-c2ccccc2)C12C(=O)Nc1ccc(Cl)cc12 (stereo not given)", "condition met"],
  ["Cc1[nH]nc2ccc3nc(-c4cnn(CCO)c4)c4c(c3c12)CCCC4", "condition met"],
  ["Cc1nc(Nc2ccccn2)sc1C1=NNC(c2ccccc2F)C1 (stereo not given)", "condition not met"]
]}

* * *

tested on: MDA-MB-231 breast; experiment: NCI-60 one-dose screen, 48 h; conditions: 10 µM unless noted
This is part of a sample that, as a whole, favours compounds with a hit. Of some 83,000 tested, about 20% had one in any assay. Calls of active or inactive are those of the source. The calls were made as follows: active = growth percent below 10; inactive = the rest.
Classes used: T = active, F = inactive

{"columns": ["compound", "assay system", "classification"],
 "data": [
  ["c1n[nH]cc1-c1nc2ccc3[nH]ncc3c2c2c1CC1(CCOCC1)CC2", "MDA-MB-231 breast", "F"],
  ["NS(=O)(=O)c1ccc(Nc2nc(N/N=C/c3cc(Br)c(O)c(Br)c3)nc(Nc3ccccc3)n2)cc1", "MDA-MB-231 breast", "T"],
  ["CC(=O)C[n+]1cccc2c3ccccc3ccc21", "MDA-MB-231 breast", "F"],
  ["N#C/C(=C1/C(=O)Nc2ccccc21)c1nnc(NC(=O)c2ccc(-n3c(=O)[nH]c4ccccc4c3=O)cc2)s1", "MDA-MB-231 breast", "T"],
  ["COc1ccc(CCC2NCCc3c(Br)c4c(c(OC)c32)OCO4)cc1 (stereo not given)", "MDA-MB-231 breast", "F"],
  ["O=C(NNC(=O)c1ccc(OCc2nc3ccc(Cl)cc3[nH]2)cc1)Nc1ccc(Cl)c(Cl)c1", "MDA-MB-231 breast", "F"],
  ["COc1cc(/C=N/NC(=O)c2ccc(OCc3nc4ccc(C)cc4[nH]3)cc2)cc(OC)c1OC", "MDA-MB-231 breast", "F"],
  ["COC(=O)c1ccc(-c2c(-c3ccccc3)c(F)c3oc(C(=O)OC)c(N)c3c2-c2ccccc2)cc1", "MDA-MB-231 breast", "F"],
  ["COc1ccc(C(=O)/C=C/c2ccc3c(c2)OCCO3)cc1S(N)(=O)=O", "MDA-MB-231 breast", "F"],
  ["O=C(Nc1ccc(-c2ccc3c(c2)NC(=O)/C3=C\\c2ccc[nH]2)cc1)Nc1ccc(Cl)c(C(F)(F)F)c1", "MDA-MB-231 breast", "F"],
  ["CN1CCN(C(=O)Oc2cc3c(c4ccccc24)[C@H](CCl)CN3C(=O)c2cc3cc(OCCCN4CCC4)ccc3[nH]2)[C@@H]2CSSC[C@H]21", "MDA-MB-231 breast", "T"],
  ["O=C1CCC(N2C(=O)c3cccc(NCCOCCOCCOCCC(=O)NCCCC(=O)NC(c4ccc5c(c4)OCO5)c4cc(Cl)c5cccnc5c4O)c3C2=O)C(=O)C1 (stereo not given)", "MDA-MB-231 breast", "F"],
  ["N#CC1=C(c2cccs2)Nc2c(c(-c3ccccc3)nn2-c2ccccc2)C12C(=O)Nc1ccc(Br)cc12 (stereo not given)", "MDA-MB-231 breast", "T"],
  ["COc1ccc(OC)c(Cn2cc(C#N)c(N)c2C(=O)c2ccc(Br)cc2)c1", "MDA-MB-231 breast", "F"],
  ["COc1ccc2c(c1)c(-c1cc(N)n3nc(-c4c[nH]c5ccccc45)cc3n1)cn2C", "MDA-MB-231 breast", "T"],
  ["O=C(CSc1nc2sc3c(c2c(=O)n1-c1ccc(Cl)cc1)CCCC3)NNC(=O)c1ccc(F)cc1", "MDA-MB-231 breast", "F"],
  ["Cc1cnc2ccc(Oc3ccccc3-c3ccccc3)nn12", "MDA-MB-231 breast", "F"],
  ["Cn1ncc2c(N)nc(Oc3ccccc3-c3ccccc3)nc21", "MDA-MB-231 breast", "F"],
  ["Cc1nc2sccn2c1-c1nnc(SCC(C)C)o1", "MDA-MB-231 breast", "F"],
  ["O=C(COc1ccc(/C=C2/C(=O)Nc3ccc(Cl)cc32)cc1)Nc1ccc(Br)cc1", "MDA-MB-231 breast", "T"],
  ["COc1ccc2[nH]c(O)c(N=Nc3nc(-c4ccc(Br)cc4)cs3)c2c1", "MDA-MB-231 breast", "F"],
  ["COc1cccc(/C=C/c2nc3ccccc3c(=O)n2CC(=O)Nc2ccccc2)c1", "MDA-MB-231 breast", "T"],
  ["O=C1NC(=NC23CC4CC(CC(C4)C2)C3)N/C1=C\\c1ccc2ncccc2c1", "MDA-MB-231 breast", "T"],
  ["Cc1ccc(C2CC(c3ccc(NC(=O)Nc4ccccc4)cc3)=NN2c2ccc(S(C)(=O)=O)cc2)cc1 (stereo not given)", "MDA-MB-231 breast", "T"],
  ["CC(=O)c1ccc2c(N)c(C(=O)Nc3ccc(C(F)(F)F)cc3)sc2n1", "MDA-MB-231 breast", "F"],
  ["O=C(OCCOCCO)N(c1cccc(Br)c1)c1nc(SCCN2CCOCC2)nc2c1cnn2CC(Cl)c1ccc(Br)cc1 (stereo not given)", "MDA-MB-231 breast", "T"],
  ["CS(=O)(=O)Nc1cccc(-n2cnc3cc(-c4ccc(O)cc4)ccc32)c1", "MDA-MB-231 breast", "F"],
  ["O=S(=O)(c1nc(-c2ccc(Br)cc2)oc1-c1ccc(Cl)cc1)N1CCCC(O)C1 (stereo not given)", "MDA-MB-231 breast", "F"],
  ["O=c1ccc(Cn2c(C(F)(F)F)cc3c(Cl)ncnc32)c[nH]1", "MDA-MB-231 breast", "F"],
  ["COC(=O)c1c(C(=O)OC)c2ccc3c4ccccc4ccc3n2c1C(=O)OC", "MDA-MB-231 breast", "F"]
]}
